Collected pKapp_sign values appear next to each entry.
study target: His6-avi-MBP-tagged POLE2
protocol summary: Single-point nHU-MS with recombinant His6-avi-MBP-POLE2 bait, Jurkat extract
Type: binding, human
condition parameters: significant apparent affinity of endogenous prey protein for POLE2 bait; single-point nHU-MS; Figure S11
Give your answer as a number; write no unit.

{"molecule": "ASPA (protein, UniProt P45381 1-313, looked up) Aspartoacylase: MTSCHIAEEHIQKVAIFGGTHGNELTGVFLVKHWLENGAEIQRTGLEVKPFITNPRAVKKCTRYIDCDLNRIFDLENLGKKMSEDLPYEVRRAQEINHLFGPKDSEDSYDIIFDLHNTTSNMGCTLILEDSRNNFLIQMFHYIKTSLAPLPCYVYLIEHPSLKYATTRSIAKYPVGIEVGPQPQGVLRADILDQMRKMIKHALDFIHHFNEGKEFPPCAIEVYKIIEKVDYPRDENGEIAAIIHPNLQDQDWKPLHPGDPMFLTLDGKTIPLGGDCTVYPVFVNEAAYYEKKEAFAKTTKLTLNAKSIRCCLH", "pKapp_sign": 5.902}

Continue with the next molecule.
INPUT: What does the data say about its pKapp_sign? Entry: IVD (protein, UniProt P26440 33-426, looked up) Isovaleryl-CoA dehydrogenase, …: HSLLPVDDAINGLSEEQRQLRQTMAKFLQEHLAPKAQEIDRSNEFKNLREFWKQLGNLGVLGITAPVQYGGSGLGYLEHVLVMEEISRASGAVGLSYGAHSNLCINQLVRNGNEAQKEKYLPKLISGEYIGALAMSEPNAGSDVVSMKLKAEKKGNHYILNGNKFWITNGPDADVLIVYAKTDLAAVPASRGITAFIVEKGMPGFSTSKKLDKLGMRGSNTCELIFEDCKIPAANILGHENKGVYVLMSGLDLERLVLAGGPLGLMQAVLDHTIPYLHVREAFGQKIGHFQLMQGKMADMYTRLMACRQYVYNVAKACDEGHCTAKDCAGVILYSAECATQVALDGIQCFGGNGYINDFPMGRFLRDAKLYEIGAGTSEVRRLVIGRAFNADFH
OUTPUT: 4.276
